// reported Dmax at 10 µM per item
biological target: IKZF3 (Aiolos) (Homo sapiens, UniProt Q96SW2+Q9UKT9); construct: mScarlet (C, cleaved yes); expressed in transfected cells; assay: Stable cell line fluorescent reporter degradation assay, IKZF3; type: cell-based; conditions: HEK-293T, 24 h, 10 micromolar; HEK 293T IKZF3-mNeonGreen reporter cells; 24 hour incubation; calculated visually from the curves
Sequence (Q9UKT9 whole entry): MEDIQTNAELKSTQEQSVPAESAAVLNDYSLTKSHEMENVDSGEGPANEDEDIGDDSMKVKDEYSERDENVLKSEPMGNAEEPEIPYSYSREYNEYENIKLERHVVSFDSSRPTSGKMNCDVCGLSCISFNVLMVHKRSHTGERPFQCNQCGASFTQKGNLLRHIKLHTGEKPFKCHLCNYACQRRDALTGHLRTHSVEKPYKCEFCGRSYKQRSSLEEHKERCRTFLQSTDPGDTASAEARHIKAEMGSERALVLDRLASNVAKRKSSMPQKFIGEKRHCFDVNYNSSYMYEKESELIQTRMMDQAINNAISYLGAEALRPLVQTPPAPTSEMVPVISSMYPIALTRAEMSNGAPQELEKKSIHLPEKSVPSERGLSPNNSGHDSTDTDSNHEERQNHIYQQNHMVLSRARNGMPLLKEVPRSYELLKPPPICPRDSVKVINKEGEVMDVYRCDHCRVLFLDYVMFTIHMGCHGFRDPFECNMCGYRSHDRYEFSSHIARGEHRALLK
Sequence (Q96SW2 whole entry): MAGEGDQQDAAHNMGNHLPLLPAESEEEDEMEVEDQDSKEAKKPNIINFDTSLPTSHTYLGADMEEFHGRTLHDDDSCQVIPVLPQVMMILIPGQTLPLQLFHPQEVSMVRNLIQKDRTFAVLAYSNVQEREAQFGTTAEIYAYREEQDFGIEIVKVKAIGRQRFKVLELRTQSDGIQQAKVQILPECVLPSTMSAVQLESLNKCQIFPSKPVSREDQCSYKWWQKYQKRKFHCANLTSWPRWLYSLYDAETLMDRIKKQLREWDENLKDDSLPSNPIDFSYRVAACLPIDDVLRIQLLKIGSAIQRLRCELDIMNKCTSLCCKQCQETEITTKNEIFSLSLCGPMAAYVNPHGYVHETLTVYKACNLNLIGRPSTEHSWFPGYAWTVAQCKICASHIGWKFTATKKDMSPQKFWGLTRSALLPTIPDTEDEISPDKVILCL
Sequence (Q16531 whole entry partner): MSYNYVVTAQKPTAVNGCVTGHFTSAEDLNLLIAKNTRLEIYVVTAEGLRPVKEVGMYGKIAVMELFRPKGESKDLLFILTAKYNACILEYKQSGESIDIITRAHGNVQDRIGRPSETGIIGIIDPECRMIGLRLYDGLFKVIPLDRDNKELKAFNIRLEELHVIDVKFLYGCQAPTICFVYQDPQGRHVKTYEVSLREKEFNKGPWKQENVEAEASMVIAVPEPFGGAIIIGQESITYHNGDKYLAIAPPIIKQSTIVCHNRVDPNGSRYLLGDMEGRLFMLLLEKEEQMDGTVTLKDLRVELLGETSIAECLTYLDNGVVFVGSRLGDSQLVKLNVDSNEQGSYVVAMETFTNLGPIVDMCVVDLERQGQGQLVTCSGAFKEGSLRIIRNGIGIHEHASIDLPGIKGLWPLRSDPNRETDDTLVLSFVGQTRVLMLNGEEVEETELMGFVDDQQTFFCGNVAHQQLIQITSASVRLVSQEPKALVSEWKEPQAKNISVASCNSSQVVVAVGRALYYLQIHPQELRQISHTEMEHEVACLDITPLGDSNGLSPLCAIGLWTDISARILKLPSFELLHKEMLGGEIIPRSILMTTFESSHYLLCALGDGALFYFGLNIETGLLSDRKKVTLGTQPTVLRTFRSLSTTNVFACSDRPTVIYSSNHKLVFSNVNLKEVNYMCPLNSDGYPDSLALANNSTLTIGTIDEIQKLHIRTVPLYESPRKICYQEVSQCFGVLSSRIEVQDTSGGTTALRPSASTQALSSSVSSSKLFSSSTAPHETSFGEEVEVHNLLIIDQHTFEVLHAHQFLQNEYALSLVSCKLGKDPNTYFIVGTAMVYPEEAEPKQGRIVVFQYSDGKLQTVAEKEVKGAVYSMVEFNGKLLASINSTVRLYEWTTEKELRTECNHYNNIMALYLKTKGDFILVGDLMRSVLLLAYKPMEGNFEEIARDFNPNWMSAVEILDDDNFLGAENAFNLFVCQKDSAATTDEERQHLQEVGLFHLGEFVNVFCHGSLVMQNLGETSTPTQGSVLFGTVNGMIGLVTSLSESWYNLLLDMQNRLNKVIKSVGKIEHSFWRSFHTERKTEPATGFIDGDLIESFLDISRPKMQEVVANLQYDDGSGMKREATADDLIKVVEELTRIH
// note: answer is a bare numeric in %

Field: example entries. Status: answers known.
{"compound": "Cc1nc2cccc(NCc3ccc(CN4CC(N5CCOCC5)C4)cc3F)c2c(=O)n1C1CCC(=O)NC1=O (stereo not drawn)", "Dmax at 10 µM, %": 96.3}
{"compound": "Cc1nc2cccc(NCc3ccc(F)cc3)c2c(=O)n1C1CCC(=O)NC1=O (stereo not drawn)", "Dmax at 10 µM, %": 95.8}
{"compound": "Cc1nc2cccc(NCc3cccc(F)c3)c2c(=O)n1C1CCC(=O)NC1=O (stereo not drawn)", "Dmax at 10 µM, %": 93.6}
{"compound": "O=C1CCC(n2nnc3cccc(NCc4ccc(CN5CCOCC5)cc4)c3c2=O)C(=O)N1 (stereo not drawn)", "Dmax at 10 µM, %": 87.4}

input: I have this compound here, O=C1CCC(n2cnc3cccc(NCc4ccc(CN5CC(N6CCOCC6)C5)cc4F)c3c2=O)C(=O)N1 (stereo not drawn) , and I need its recorded Dmax at 10 µM.
output: 92.4

input: Please answer likewise for Cc1cccc(CNc2cccc3nc(C)n(C4CCC(=O)NC4=O)c(=O)c23)c1 (stereo not drawn)
output: 94.3

* * *

target: cereblon (NanoLuc-CRBN) (Homo sapiens, UniProt Q96SW2); construct: host or cells: HEK293T; experiment: NanoBRET CRBN Cellular Target Engagement Assay; type: binding; conditions: compound tested at 10 μM; HEK293T cells transfected with NanoLuc-CRBN; 2 hr incubation; read-out: % tracer removed From CBLN
// reported inhibition at 10 µM per item
Answer as a quantity: numeral, then unit.

Field: example entries. Status: answers known.
{"molecule": "Cc1nc2cccc(NCc3ccccc3Cl)c2c(=O)n1C1CCC(=O)NC1=O (centres unmarked) [Example 9]", "inhibition at 10 µM": "69.8%"}
{"molecule": "Cc1nc2cccc(NCc3cc(Cl)ccc3Cl)c2c(=O)n1C1CCC(=O)NC1=O (centres unmarked) [Example 20]", "inhibition at 10 µM": "87.9%"}
{"molecule": "COc1ccc(OC)c(CNc2cccc3nnn(C4CCC(=O)NC4=O)c(=O)c23)c1 (centres unmarked) [Example 19]", "inhibition at 10 µM": "71.3%"}

Then this molecule:
input: I have this molecule here, Cc1nc2cccc(NCc3ccc(C(F)(F)F)cc3)c2c(=O)n1C1CCC(=O)NC1=O (centres unmarked) [Example 15] , and I need its recorded inhibition at 10 µM.
output: 76.1%

* * *

// reported remaining activity at 10 µM per item
target: cereblon (NanoLuc-CRBN) (Homo sapiens); construct: host or cells: HEK293T; test: NanoBRET CRBN Cellular Target Engagement Assay; format: binding; details: compound tested at 10 μM; HEK293T cells transfected with NanoLuc-CRBN; 2 hr incubation; lower = higher affinity; read-out: % tracer bound At the end of assay
// note: answer is a bare numeric in %

Field: example entries. Status: answers known.
{"compound": "Cc1nc2cccc(NCc3ccc(CO)cc3)c2c(=O)n1C1CCC(=O)NC1=O (centres unmarked)", "unitName": "%", "reportedResult": 9.9}
{"compound": "Cc1ccc(CNc2cccc3nc(C)n(C4CCC(=O)NC4=O)c(=O)c23)cc1 (centres unmarked)", "unitName": "%", "reportedResult": 47.7}
{"compound": "Cc1nc2cccc(NCc3ccccc3C#N)c2c(=O)n1C1CCC(=O)NC1=O (centres unmarked)", "unitName": "%", "reportedResult": 16}
{"compound": "Cc1nc2cccc(NCc3ccc(CN4CCN(c5ccc(C#N)cc5F)CC4)cc3)c2c(=O)n1C1CCC(=O)NC1=O (centres unmarked)", "unitName": "%", "reportedResult": 27.4}

Then this compound:
input: Param readout= remaining activity at 10 µM; system= cereblon (NanoLuc-CRBN) (Homo sapiens); entry= Cc1ccccc1CNc1cccc2nc(C)n(C3CCC(=O)NC3=O)c(=O)c12 (centres unmarked) ; returns value.
output: 30.2

* * *

molecular target: IKZF3 (Aiolos) (Homo sapiens, UniProt Q96SW2+Q9UKT9); construct: mScarlet (C, cleaved yes); expressed in transfected cells; assay: Stable cell line fluorescent reporter degradation assay, IKZF3; assay type: cell-based; conditions: 10 micromolar; HEK 293T IKZF3-mNeonGreen reporter cells; 24 hour incubation; calculated visually from the curves
// reported Dmax at 10 µM per item
// note: answer is a bare numeric in %

{"molecule": "Cc1nc2cccc(NCc3cccc(CN4CCN(c5ccc(C#N)cc5F)CC4)c3)c2c(=O)n1C1CCC(=O)NC1=O (stereo not shown)", "reportedResult": 87.4}
{"molecule": "Cc1nc2cccc(NCc3ccc(CN4CCN(c5ccc(C#N)cc5F)CC4)cc3)c2c(=O)n1C1CCC(=O)NC1=O (stereo not shown)", "reportedResult": 93.2}
{"molecule": "Cc1nc2cccc(NCc3ccc(CN4CCOCC4)cc3)c2c(=O)n1C1CCC(=O)NC1=O (stereo not shown)", "reportedResult": 91.9}

Then this molecule:
input: I have this molecule here, COc1ccc(CNc2cccc3nc(C)n(C4CCC(=O)NC4=O)c(=O)c23)cc1 (stereo not shown) , and I need its recorded Dmax at 10 µM.
output: 91.1

* * *

target: IKZF1 (Ikaros) (Homo sapiens, UniProt Q13422+Q96SW2); construct: mScarlet (C, cleaved yes); expressed in transfected cells; test: Stable cell line fluorescent reporter degradation assay, IKZF1; assay type: cell-based; details: HEK-293T, 24 h, 10 micromolar; HEK 293T IKZF1-mNeonGreen reporter cells; 24 hour incubation; calculated visually from the curves
Sequence (Q13422 whole entry): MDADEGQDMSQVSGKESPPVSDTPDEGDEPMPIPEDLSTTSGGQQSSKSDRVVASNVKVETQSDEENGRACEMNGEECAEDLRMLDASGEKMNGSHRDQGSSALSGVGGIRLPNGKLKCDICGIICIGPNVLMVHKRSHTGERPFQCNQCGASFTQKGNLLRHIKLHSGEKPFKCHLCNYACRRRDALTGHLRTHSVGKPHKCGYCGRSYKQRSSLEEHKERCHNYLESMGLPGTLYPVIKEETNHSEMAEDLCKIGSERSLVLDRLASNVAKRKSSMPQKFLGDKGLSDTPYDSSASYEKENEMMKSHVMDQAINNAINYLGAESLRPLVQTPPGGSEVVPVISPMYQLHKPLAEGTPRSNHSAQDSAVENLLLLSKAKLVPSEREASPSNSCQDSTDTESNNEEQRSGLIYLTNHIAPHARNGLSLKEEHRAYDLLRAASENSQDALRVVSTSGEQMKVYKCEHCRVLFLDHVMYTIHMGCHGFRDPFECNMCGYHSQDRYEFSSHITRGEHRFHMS
Sequence (Q96SW2 whole entry): as the sequence (Q96SW2 whole entry) above
Sequence (Q16531 whole entry partner): as the sequence (Q16531 whole entry partner) above
quantityMeasured: Dmax at 10 µM

{"compound": "Cc1cccc(CNc2cccc3nc(C)n(C4CCC(=O)NC4=O)c(=O)c23)c1 (stereo not drawn)", "measurementTarget": "IKZF1 (Ikaros) (Homo sapiens, UniProt Q13422+Q96SW2)", "Dmax at 10 µM": "76.8%"}

input: I have this compound here, Cc1nc2cccc(NCc3ccc(CN4CC(N5CCOCC5)C4)cc3F)c2c(=O)n1C1CCC(=O)NC1=O (stereo not drawn) , and I need its recorded Dmax at 10 µM.
output: 97.1%

input: Please answer likewise for Cc1nc2cccc(NCc3ccc(F)cc3)c2c(=O)n1C1CCC(=O)NC1=O (stereo not drawn)
output: 92.4%

input: Please answer likewise for O=C1CCC(n2cnc3cccc(NCc4ccc(CN5CC(N6CCOCC6)C5)cc4F)c3c2=O)C(=O)N1 (stereo not drawn)
output: 78.4%

input: Please answer likewise for O=C1CCC(n2nnc3cccc(NCc4ccc(CN5CCOCC5)cc4)c3c2=O)C(=O)N1 (stereo not drawn)
output: 88.2%

input: Please answer likewise for Cc1nc2cccc(NCc3cccc(F)c3)c2c(=O)n1C1CCC(=O)NC1=O (stereo not drawn)
output: 89.7%

* * *

biological target: cereblon (NanoLuc-CRBN) (Homo sapiens, UniProt Q96SW2); construct: host or cells: HEK293T; experiment: NanoBRET CRBN Cellular Target Engagement Assay; assay type: binding; settings: compound tested at 10 μM; HEK293T cells transfected with NanoLuc-CRBN; 2 hr incubation; read-out: % tracer removed From CBLN
// reported inhibition at 10 µM per item
// note: answer is a bare numeric in %

Field: example entries. Status: answers known.
{"compound": "COc1ccccc1CNc1cccc2nc(C)n(C3CCC(=O)NC3=O)c(=O)c12 (centres unmarked)", "inhibition at 10 µM, %": 52.6}
{"compound": "Cc1nc2cccc(NCc3ccccc3C#N)c2c(=O)n1C1CCC(=O)NC1=O (centres unmarked)", "inhibition at 10 µM, %": 84}
{"compound": "Cc1cccc(CNc2cccc3nc(C)n(C4CCC(=O)NC4=O)c(=O)c23)c1 (centres unmarked)", "inhibition at 10 µM, %": 77.1}
{"compound": "Cc1nc2cccc(NCc3ccc(F)cc3)c2c(=O)n1C1CCC(=O)NC1=O (centres unmarked)", "inhibition at 10 µM, %": 59.1}
{"compound": "Cc1nc2cccc(NCc3cccc(F)c3)c2c(=O)n1C1CCC(=O)NC1=O (centres unmarked)", "inhibition at 10 µM, %": 76.2}
{"compound": "COc1ccc(CNc2cccc3nc(C)n(C4CCC(=O)NC4=O)c(=O)c23)c(OC)c1 (centres unmarked)", "inhibition at 10 µM, %": 65.2}

input: I have this compound here, Cc1nc2cccc(NCc3c(Cl)cccc3Cl)c2c(=O)n1C1CCC(=O)NC1=O (centres unmarked) , and I need its recorded inhibition at 10 µM.
output: 78.7

input: Please answer likewise for Cc1nc2cccc(NCc3cccc(Cl)c3)c2c(=O)n1C1CCC(=O)NC1=O (centres unmarked)
output: 79.8

input: Please answer likewise for Cc1nc2cccc(NCc3ccc(CO)cc3)c2c(=O)n1C1CCC(=O)NC1=O (centres unmarked)
output: 90.1

input: Please answer likewise for COc1cc(CNc2cccc3nc(C)n(C4CCC(=O)NC4=O)c(=O)c23)cc(OC)c1 (centres unmarked)
output: 79.1

input: Please answer likewise for COc1cccc(CNc2cccc3nc(C)n(C4CCC(=O)NC4=O)c(=O)c23)c1 (centres unmarked)
output: 72.7
